Target: integrin α4β7 on α4β7+ memory T helper cells (Homo sapiens, UniProt P13612+P26010)
Construct: endogenous in cells
Sequence (P13612 34-1032): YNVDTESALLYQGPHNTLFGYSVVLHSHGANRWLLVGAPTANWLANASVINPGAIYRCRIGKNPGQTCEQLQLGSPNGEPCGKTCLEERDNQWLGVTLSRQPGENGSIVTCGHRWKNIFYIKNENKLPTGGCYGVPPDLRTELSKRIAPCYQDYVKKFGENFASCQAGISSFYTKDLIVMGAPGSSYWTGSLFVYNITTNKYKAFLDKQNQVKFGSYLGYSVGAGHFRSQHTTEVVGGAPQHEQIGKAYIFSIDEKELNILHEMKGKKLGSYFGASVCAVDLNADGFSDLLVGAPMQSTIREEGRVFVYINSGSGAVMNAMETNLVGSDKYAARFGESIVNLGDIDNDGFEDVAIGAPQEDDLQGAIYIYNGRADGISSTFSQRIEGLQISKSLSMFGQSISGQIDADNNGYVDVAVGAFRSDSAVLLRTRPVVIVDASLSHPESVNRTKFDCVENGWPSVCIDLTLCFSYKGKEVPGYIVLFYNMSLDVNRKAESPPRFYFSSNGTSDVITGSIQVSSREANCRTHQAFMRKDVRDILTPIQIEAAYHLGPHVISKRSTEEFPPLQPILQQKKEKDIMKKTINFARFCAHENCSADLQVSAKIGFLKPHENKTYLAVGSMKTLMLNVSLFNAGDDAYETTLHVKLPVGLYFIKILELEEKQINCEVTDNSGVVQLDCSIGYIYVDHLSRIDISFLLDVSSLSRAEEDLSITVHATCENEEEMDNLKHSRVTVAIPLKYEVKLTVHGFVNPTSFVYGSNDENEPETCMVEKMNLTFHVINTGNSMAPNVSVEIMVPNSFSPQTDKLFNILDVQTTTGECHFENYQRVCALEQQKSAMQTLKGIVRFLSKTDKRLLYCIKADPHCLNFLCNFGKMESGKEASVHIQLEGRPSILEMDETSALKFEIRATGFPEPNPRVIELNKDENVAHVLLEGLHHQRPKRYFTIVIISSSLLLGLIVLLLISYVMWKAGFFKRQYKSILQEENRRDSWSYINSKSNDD
Sequence (P26010 20-798): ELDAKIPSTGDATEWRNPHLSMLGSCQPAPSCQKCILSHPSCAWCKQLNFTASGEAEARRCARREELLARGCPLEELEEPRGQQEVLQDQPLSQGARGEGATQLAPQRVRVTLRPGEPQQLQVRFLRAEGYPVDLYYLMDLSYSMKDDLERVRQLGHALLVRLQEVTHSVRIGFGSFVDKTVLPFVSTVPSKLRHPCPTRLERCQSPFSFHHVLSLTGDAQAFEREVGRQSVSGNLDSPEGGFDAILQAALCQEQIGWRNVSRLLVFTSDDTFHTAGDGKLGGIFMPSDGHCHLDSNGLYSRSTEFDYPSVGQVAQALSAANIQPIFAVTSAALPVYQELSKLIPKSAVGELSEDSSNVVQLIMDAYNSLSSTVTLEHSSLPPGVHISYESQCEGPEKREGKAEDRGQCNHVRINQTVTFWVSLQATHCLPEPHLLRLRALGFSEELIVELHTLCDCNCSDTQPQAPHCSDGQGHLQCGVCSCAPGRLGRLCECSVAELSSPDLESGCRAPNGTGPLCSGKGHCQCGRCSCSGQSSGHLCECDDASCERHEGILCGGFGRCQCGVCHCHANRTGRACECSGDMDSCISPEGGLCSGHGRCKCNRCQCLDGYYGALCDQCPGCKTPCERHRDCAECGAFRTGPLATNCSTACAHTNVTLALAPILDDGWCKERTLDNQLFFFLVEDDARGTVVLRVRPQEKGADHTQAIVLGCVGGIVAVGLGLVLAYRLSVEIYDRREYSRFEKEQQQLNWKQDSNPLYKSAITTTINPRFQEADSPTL
Test: MAdCAM-1 competition / receptor occupancy assay in human whole blood, α4β7-positive Th memory cells
Type: cell-based
Details: human whole blood, inhibition of MAdCAM-1 binding to α4β7-positive Th memory cells, FACS; read-out: MADCAM FACS α4β7 Th mem
Method: Analyte Competition Assay in CD4+ Integrin α4+β7-Lo Memory T Cells Receptor occupancy in primary cells was determined by measuring the amount of biotinylated human recombinant MAdCAM-1-FC or human recombinant VCAM-1-Fc bound to selected cell populations using flow cytometry. […] Receptor occupancy was calculated with the following equation: 100−((% ligand-positive cells with compound/% ligand-positive cells DMSO)*100) In Vivo T Lymphocyte Trafficking Analysis in Mouse Model of Colitis
# IC50 annotations
READOUT_NAME: IC50 (nM)

MOLECULE	READOUT_NAME	NUMERIC_RESULT
CC(C)C[C@@H]1NC(=O)c2ccc(-c3ccc(N4CCN(CCC(=O)N5CCN(c6ccc(-c7ccc8cc7CNC(=O)[C@@H]7CCCN7[C@H](C(=O)NC(C)(C)C)[C@H](C)NC(=O)[C@H]([C@@H](C)O)NC(=O)[C@H](CC(=O)O)NC(=O)[C@H](CC(C)C)NC8=O)cc6)CC5)CC4)cc3)c(c2)CNC(=O)[C@@H]2CCCN2[C@H](C(=O)NC(C)(C)C)[C@H](C)NC(=O)[C@H]([C@@H](C)O)NC(=O)[C@H](CC(=O)O)NC1=O [Compound 482]	IC50	30
CC(C)C[C@@H]1NC(=O)C[C@H](CCCCN)N(C)C(=O)[C@H](CCCCNC(=O)CCCCCCCC(=O)NCCCC[C@@H]2NC(=O)[C@@H]3CCCN3[C@H](C(=O)NC(C)(C)C)[C@H](C)NC(=O)[C@H]([C@@H](C)O)NC(=O)[C@H](CC(=O)O)NC(=O)[C@H](CC(C)C)NC(=O)C[C@H](CCCCN)N(C)C2=O)NC(=O)[C@@H]2CCCN2[C@H](C(=O)NC(C)(C)C)[C@H](C)NC(=O)[C@H]([C@@H](C)O)NC(=O)[C@H](CC(=O)O)NC1=O [Compound 533]	IC50	46
CC(C)C[C@@H]1NC(=O)c2ccc(-c3ccc(N4CCN(C(=O)CC[C@H](N)C(=O)N5CCN(c6ccc(-c7ccc8cc7CNC(=O)[C@@H]7CCCN7[C@H](C(=O)NC(C)(C)C)[C@H](C)NC(=O)[C@H]([C@@H](C)O)NC(=O)[C@H](CC(=O)O)NC(=O)[C@H](CC(C)C)NC8=O)cc6)CC5)CC4)cc3)c(c2)CNC(=O)[C@@H]2CCCN2[C@H](C(=O)NC(C)(C)C)[C@H](C)NC(=O)[C@H]([C@@H](C)O)NC(=O)[C@H](CC(=O)O)NC1=O [Compound 494]	IC50	128

----------
target: integrin α4β7 (RPMI8866 human cells adhering to MAdCAM-1) (Homo sapiens, UniProt P13612+P26010); construct: RMP18866 cells, which express integrin α4β7; host or cells: RPMI8866; assay: Integrin α4β7-MAdCAM cell adhesion assay (RPMI8866 cells); type: cell-based; settings: RPMI8866 cells adhering to MAdCAM; read-out: RPMI8866 Adhesion α4β7/MAdCAM IC50
Sequence (P13612 34-1032): as the sequence (P13612 34-1032) above
Sequence (P26010 20-798): as the sequence (P26010 20-798) above
pIC50: −log10 of the molar value.
# pIC50 annotations

QUERY_SMILES	pIC50
CC(C)C[C@@H]1NC(=O)c2ccc(-c3ccc(N4CCN(C(=O)c5ccc(-c6ccc(C(=O)N7CCN(c8ccc(-c9ccc%10cc9CNC(=O)[C@@H]9CCCN9[C@H](C(=O)NC(C)(C)C)[C@H](C)NC(=O)[C@H]([C@@H](C)O)NC(=O)[C@H](CC(=O)O)NC(=O)[C@H](CC(C)C)NC%10=O)cc8)CC7)cc6)cc5)CC4)cc3)c(c2)CNC(=O)[C@@H]2CCCN2[C@H](C(=O)NC(C)(C)C)[C@H](C)NC(=O)[C@H]([C@@H](C)O)NC(=O)[C@H](CC(=O)O)NC1=O	7.85
CC(C)C[C@@H]1NC(=O)c2ccc(-c3ccc(N4CCN(C(=O)Cc5ccccc5C(=O)N5CCN(c6ccc(-c7ccc8cc7CNC(=O)[C@@H]7CCCN7[C@H](C(=O)NC(C)(C)C)[C@H](C)NC(=O)[C@H]([C@@H](C)O)NC(=O)[C@H](CC(=O)O)NC(=O)[C@H](CC(C)C)NC8=O)cc6)CC5)CC4)cc3)c(c2)CNC(=O)[C@@H]2CCCN2[C@H](C(=O)NC(C)(C)C)[C@H](C)NC(=O)[C@H]([C@@H](C)O)NC(=O)[C@H](CC(=O)O)NC1=O	7.39

----------
# ELISA Assay Ratio b1/b7 annotations
target: recombinant integrin α4β7 (Homo sapiens, UniProt P13612+P26010, DEL724-798); construct: purchased R&D Systems 5397-A3-050; assay: Integrin α4β7—MAdCAM-1 ELISA competition assay; format: binding; details: ratio of a4b1 to a4b7 ELISA IC50
Sequence (P13612 34-970 limits assumed, stated change not applied): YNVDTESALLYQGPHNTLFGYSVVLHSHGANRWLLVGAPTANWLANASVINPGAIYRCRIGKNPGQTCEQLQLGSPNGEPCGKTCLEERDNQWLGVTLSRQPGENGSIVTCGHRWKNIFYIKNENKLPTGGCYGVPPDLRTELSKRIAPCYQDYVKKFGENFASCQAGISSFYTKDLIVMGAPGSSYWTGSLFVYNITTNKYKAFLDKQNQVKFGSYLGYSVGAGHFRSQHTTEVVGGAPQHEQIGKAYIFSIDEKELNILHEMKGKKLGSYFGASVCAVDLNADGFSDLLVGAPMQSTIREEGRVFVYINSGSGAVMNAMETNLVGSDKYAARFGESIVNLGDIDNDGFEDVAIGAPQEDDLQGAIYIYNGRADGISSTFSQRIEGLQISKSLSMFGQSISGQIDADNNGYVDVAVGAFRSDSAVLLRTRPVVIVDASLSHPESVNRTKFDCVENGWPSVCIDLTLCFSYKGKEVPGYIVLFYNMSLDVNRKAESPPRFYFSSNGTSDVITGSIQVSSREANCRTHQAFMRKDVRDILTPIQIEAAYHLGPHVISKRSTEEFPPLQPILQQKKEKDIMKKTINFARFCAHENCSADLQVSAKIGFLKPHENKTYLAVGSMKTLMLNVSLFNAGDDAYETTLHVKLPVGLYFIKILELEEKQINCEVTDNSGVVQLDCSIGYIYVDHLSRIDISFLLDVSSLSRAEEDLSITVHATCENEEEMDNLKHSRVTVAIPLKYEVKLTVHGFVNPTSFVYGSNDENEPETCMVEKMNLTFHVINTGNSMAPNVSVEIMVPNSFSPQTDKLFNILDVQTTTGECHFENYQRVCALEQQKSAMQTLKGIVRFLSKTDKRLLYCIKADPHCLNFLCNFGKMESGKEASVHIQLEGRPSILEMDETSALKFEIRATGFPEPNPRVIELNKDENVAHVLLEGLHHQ
Sequence (P26010 20-723 limits assumed, stated change not applied): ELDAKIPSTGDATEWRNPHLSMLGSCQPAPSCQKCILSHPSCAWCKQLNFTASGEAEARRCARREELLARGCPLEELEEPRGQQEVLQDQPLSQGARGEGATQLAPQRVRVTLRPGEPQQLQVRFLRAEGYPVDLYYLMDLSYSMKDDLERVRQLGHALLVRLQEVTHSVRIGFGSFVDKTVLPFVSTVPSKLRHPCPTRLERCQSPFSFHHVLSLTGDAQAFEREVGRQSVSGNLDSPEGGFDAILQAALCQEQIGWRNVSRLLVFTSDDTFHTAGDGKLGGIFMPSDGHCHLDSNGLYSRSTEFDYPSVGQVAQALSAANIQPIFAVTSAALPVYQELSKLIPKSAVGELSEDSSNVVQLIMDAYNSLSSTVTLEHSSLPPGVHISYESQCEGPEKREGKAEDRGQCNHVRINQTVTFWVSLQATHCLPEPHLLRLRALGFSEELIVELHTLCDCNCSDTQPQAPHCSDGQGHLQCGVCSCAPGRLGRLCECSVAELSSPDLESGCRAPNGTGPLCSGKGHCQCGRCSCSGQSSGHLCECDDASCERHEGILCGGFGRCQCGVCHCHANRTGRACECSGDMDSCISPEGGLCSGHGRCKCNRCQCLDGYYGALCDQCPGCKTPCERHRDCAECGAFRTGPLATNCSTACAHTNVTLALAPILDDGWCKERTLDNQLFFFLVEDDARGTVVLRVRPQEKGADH
READOUT_NAME: ELISA Assay Ratio b1/b7

QUERY_SMILES	ASSAYED_TARGET	NUMERIC_RESULT
CC(C)C[C@@H]1NC(=O)[C@H]2CCCCN2C(=O)[C@H](Cc2cscn2)NC(=O)[C@@H]2CCCN2[C@H](C(=O)NC(C)(C)C)[C@H](C)NC(=O)[C@H]([C@@H](C)O)NC(=O)[C@H](CC(=O)O)NC1=O	recombinant integrin α4β7 (Homo sapiens, UniProt P13612+P26010, DEL724-798)	3.1
CC(C)C[C@@H]1NC(=O)[C@H]2C[C@H](O)CN2C(=O)[C@H](Cc2cscn2)NC(=O)[C@@H]2CCCN2[C@H](C(=O)NC(C)(C)C)[C@H](C)NC(=O)[C@H]([C@@H](C)O)NC(=O)[C@H](CC(=O)O)NC1=O	recombinant integrin α4β7 (Homo sapiens, UniProt P13612+P26010, DEL724-798)	4.1
CC(C)C[C@@H]1NC(=O)CN(C)C(=O)[C@H](Cc2cccc3ccccc23)NC(=O)[C@@H]2CCCN2[C@H](C(=O)NC(C)(C)C)[C@H](C)NC(=O)[C@H]([C@@H](C)O)NC(=O)[C@H](CC(=O)O)NC1=O	recombinant integrin α4β7 (Homo sapiens, UniProt P13612+P26010, DEL724-798)	8.7
CC[C@H](C)[C@@H]1NC(=O)[C@H](CC(=O)O)NC(=O)[C@H](CC(C)C)NC(=O)C[C@@H](CCCCN)NC(=O)[C@H](Cc2ccccc2)NC(=O)[C@@H]2CCCN2[C@H](C(=O)NC(C)(C)C)[C@H](C)NC1=O	recombinant integrin α4β7 (Homo sapiens, UniProt P13612+P26010, DEL724-798)	18.2

----------
# IC50 annotations
target: recombinant integrin α4β1 (Homo sapiens, UniProt P05556+P13612); construct: purchased R&D Systems 5397-A3-050; assay: Integrin α4β1—VCAM-1 competition ELISA; type: binding; conditions: read-out: ELISA α4β1 Assay IC50
Sequence (P05556 21-728 limits assumed, one chain of several): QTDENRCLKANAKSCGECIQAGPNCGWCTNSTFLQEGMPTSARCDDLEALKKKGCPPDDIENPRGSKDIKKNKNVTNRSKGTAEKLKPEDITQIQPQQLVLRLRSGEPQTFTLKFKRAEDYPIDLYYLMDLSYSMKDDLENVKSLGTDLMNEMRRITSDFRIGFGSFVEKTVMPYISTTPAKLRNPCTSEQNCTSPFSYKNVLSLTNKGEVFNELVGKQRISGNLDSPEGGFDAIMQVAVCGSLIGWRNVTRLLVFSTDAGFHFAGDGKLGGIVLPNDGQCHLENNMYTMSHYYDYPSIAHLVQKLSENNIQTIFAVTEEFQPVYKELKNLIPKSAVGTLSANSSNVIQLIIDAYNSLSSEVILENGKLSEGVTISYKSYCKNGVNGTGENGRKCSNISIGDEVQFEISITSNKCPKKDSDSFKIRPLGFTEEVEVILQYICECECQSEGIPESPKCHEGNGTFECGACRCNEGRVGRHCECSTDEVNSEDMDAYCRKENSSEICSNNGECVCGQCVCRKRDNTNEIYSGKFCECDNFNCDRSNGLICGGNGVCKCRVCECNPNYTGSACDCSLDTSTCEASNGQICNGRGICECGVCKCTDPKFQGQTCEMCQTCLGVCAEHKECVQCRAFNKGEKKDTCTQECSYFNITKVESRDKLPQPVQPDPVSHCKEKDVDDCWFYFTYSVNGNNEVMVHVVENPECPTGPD

COMPOUND	MEASURE_UNIT	IC50
CC(C)C[C@@H]1NC(=O)c2ccc(-c3ccc(N4CCN(C(=O)c5ccc(-c6ccc(C(=O)N7CCN(c8ccc(-c9ccc%10cc9CNC(=O)[C@@H]9CCCN9[C@H](C(=O)NC(C)(C)C)[C@H](C)NC(=O)[C@H]([C@@H](C)O)NC(=O)[C@H](CC(=O)O)NC(=O)[C@H](CC(C)C)NC%10=O)cc8)CC7)cc6)cc5)CC4)cc3)c(c2)CNC(=O)[C@@H]2CCCN2[C@H](C(=O)NC(C)(C)C)[C@H](C)NC(=O)[C@H]([C@@H](C)O)NC(=O)[C@H](CC(=O)O)NC1=O [Compound 474]	nM	7.1
CC(C)C[C@@H]1NC(=O)c2ccc(-c3ccc(N4CCN(C(=O)C56CC7CC(C5)CC(C(=O)N5CCN(c8ccc(-c9ccc%10cc9CNC(=O)[C@@H]9CCCN9[C@H](C(=O)NC(C)(C)C)[C@H](C)NC(=O)[C@H]([C@@H](C)O)NC(=O)[C@H](CC(=O)O)NC(=O)[C@H](CC(C)C)NC%10=O)cc8)CC5)(C7)C6)CC4)cc3)c(c2)CNC(=O)[C@@H]2CCCN2[C@H](C(=O)NC(C)(C)C)[C@H](C)NC(=O)[C@H]([C@@H](C)O)NC(=O)[C@H](CC(=O)O)NC1=O [Compound 460]	nM	1
CC(C)C[C@@H]1NC(=O)C[C@H](CCCCN)N(C)C(=O)[C@H](CCCCNC(=O)CCOCCOCCOCCOCCOCCOCCOCCC(=O)NCCCC[C@@H]2NC(=O)[C@@H]3CCCN3[C@H](C(=O)NC(C)(C)C)[C@H](C)NC(=O)[C@H]([C@@H](C)O)NC(=O)[C@H](CC(=O)O)NC(=O)[C@H](CC(C)C)NC(=O)C[C@H](CCCCN)N(C)C2=O)NC(=O)[C@@H]2CCCN2[C@H](C(=O)NC(C)(C)C)[C@H](C)NC(=O)[C@H]([C@@H](C)O)NC(=O)[C@H](CC(=O)O)NC1=O [Compound 536]	nM	8.9
CC(C)C[C@@H]1NC(=O)C[C@H](CCCCN)N(C)C(=O)[C@H](CCCCNC(=O)CCCCCC(=O)NCCCC[C@@H]2NC(=O)[C@@H]3CCCN3[C@H](C(=O)NC(C)(C)C)[C@H](C)NC(=O)[C@H]([C@@H](C)O)NC(=O)[C@H](CC(=O)O)NC(=O)[C@H](CC(C)C)NC(=O)C[C@H](CCCCN)N(C)C2=O)NC(=O)[C@@H]2CCCN2[C@H](C(=O)NC(C)(C)C)[C@H](C)NC(=O)[C@H]([C@@H](C)O)NC(=O)[C@H](CC(=O)O)NC1=O [Compound 532]	nM	6.9
CC(C)C[C@@H]1NC(=O)c2ccc(-c3ccc(N4CCN(Cc5ccc(CN6CCN(c7ccc(-c8ccc9cc8CNC(=O)[C@@H]8CCCN8[C@H](C(=O)NC(C)(C)C)[C@H](C)NC(=O)[C@H]([C@@H](C)O)NC(=O)[C@H](CC(=O)O)NC(=O)[C@H](CC(C)C)NC9=O)cc7)CC6)cc5)CC4)cc3)c(c2)CNC(=O)[C@@H]2CCCN2[C@H](C(=O)NC(C)(C)C)[C@H](C)NC(=O)[C@H]([C@@H](C)O)NC(=O)[C@H](CC(=O)O)NC1=O [Compound 500]	nM	9.9
